Answer each item with its documented %Inh.
Test system: ERBB2;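 note: KINOMEscan kinase panel screen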
run.parameters: concentration: 1 μM, replicates: in singlicate; n = 1
Numbers only, in %.

See these solved cases before continuing.
{"compound": "CCCc1ccc(S(=O)(=O)NC2CCN(c3ccnc(Nc4ccc(OC)cc4)n3)C2)cc1 (stereo not drawn)", "target.or.system": "ERBB2", "unit.symbol": "%", "%Inh": 36}
{"compound": "CC(C)N1CCC(n2cnc(-c3ccc(F)cc3)c2-c2ccnc(N)n2)CC1", "target.or.system": "ERBB2", "unit.symbol": "%", "%Inh": 16}
{"compound": "O=c1cc(N2CCOCC2)nc2n(Cc3cccc(Cl)c3)ccn12", "target.or.system": "ERBB2", "unit.symbol": "%", "%Inh": 0}
{"compound": "Cl.c1ccc(Cn2ncc3cc(Nc4ncnc5ccccc45)ccc32)cc1", "target.or.system": "ERBB2", "unit.symbol": "%", "%Inh": 100}

// each listed compound needs a value for %Inh
1. COc1ccc(NC(=O)c2ccc(-c3cc(-c4nnc(C)o4)ccc3C)cc2)cc1
2. FC(F)(F)c1cc(Nc2nccc(-c3c(-c4ccc(Cl)cc4)nn4ncccc34)n2)ccc1Cl
3. Cl.Fc1ccccc1COc1ccc(Nc2ncnc3ccc(-c4nnc(C(F)(F)F)o4)cc23)cc1Cl
4. O=C(NCCCN1CCCC1=O)c1cnc(NCc2cc(Cl)ccc2Cl)nc1NC1CCNCC1
5. O=C(Nc1ccccc1)Nc1ccc(Oc2ccc3nccn3n2)cc1
6. O=C(c1ccc(-c2cc(-c3c[nH]nc3-c3ccccn3)ccn2)cc1)N1CCCC1
7. Cn1ccc2ncnc(Oc3ccc(NC(=O)Nc4cccnc4)c(Cl)c3)c21

1: 18; 2: 0; 3: 96.7; 4: 9; 5: 24; 6: 10; 7: 18

# batch size: 6; output %Inh per entry
1. CC(C)(C)OC(=O)NC1CCCN(c2cc(-c3ccc4c(N)n[nH]c4c3)nc(N)n2)C1 (stereo not drawn)
2. Cc1ccc(O)cc1Nc1cc(C(F)(F)F)nc2ccc(-c3ccncc3)cc12
3. CC(C)(C)c1ccc(-n2cnc3c(N)ncnc32)cc1
4. Cl.O=S(=O)(c1cccc(F)c1)c1ccc(Nc2ncnc3cc(Br)sc23)cc1Cl
5. Cc1ccc(C)c(NC(=O)NCCNc2ccnc(Nc3ccc(F)cc3)n2)c1
6. CC(=O)Nc1n[nH]c2ncc(-c3ccccc3)cc12

1. 0
2. 0
3. 29
4. 98.7
5. 0
6. 0

// for each compound below, give its %Inh
1. CNc1nccc(-c2c(-c3ccc(F)cc3)ncn2CCCN2CCOCC2)n1
2. CCC(CC)(CC)n1cnc2c(N)ncnc21

1. 0
2. 20

Parameter requested: %Inh. Apply to each item below.
1. Clc1cccc(-c2nc(Nc3ccncc3)c3ccccc3n2)c1
2. Cc1ccc(NC(=O)c2cccc(C#N)c2)cc1-c1ccc(C(=O)Nc2ccncc2)cc1
3. Cl.Cl.c1ccc(-c2cc3ccncc3cc2OC2CCNCC2)cc1
4. COC(=O)c1cccc(NC(=O)NCCNc2ccnc(Nc3ccc(F)cc3)n2)c1

[38, 0, 10, 14]

Please give %Inh for each item listed below.
1. Fc1cccc(COc2ccc(Nc3ncnc4cc[nH]c34)cc2Cl)c1
2. Fc1cccc(COc2ccc(Nc3ncnc4sc(-c5ccc[nH]5)cc34)cc2Cl)c1
3. Clc1ccc(-c2cc(-c3c[nH]nc3-c3ccccn3)ccn2)cc1
4. C[C@H]1CC[C@@H](C(=O)Nc2ccccc2)CN1c1cc(-c2ccc3c(N)n[nH]c3c2)nc(N)n1
5. CS(=O)(=O)CCNCc1nc(-c2ccc3ncnc(Nc4ccc(OCc5cccc(F)c5)c(Cl)c4)c3c2)cs1.Cl

100
100
17
25
99.7

Please go through the list and note %Inh for each compound.
1. N#Cc1ccc(Oc2ccc(Nc3ncnc4cc[nH]c34)cc2Cl)cc1
2. Cn1cc(-c2ccc3c(c2)CCN3C(=O)Cc2cccc(C(F)(F)F)c2)c2c(N)ncnc21
3. c1ccc(-c2ccc3c(-c4ccnc(Nc5ccc6c(c5)OCCO6)n4)cnn3n2)cc1
4. Nc1nc(-c2cccnc2)c(-c2ccnc3ccccc23)s1

79
0
21
51

// for each compound in input: emit %Inh
1. Clc1cc(Nc2ncnc3cc[nH]c23)ccc1OCc1ccccn1
2. Fc1cccc(COc2ccc(Nc3ncnc4nn5ccccc5c34)cc2Cl)c1
3. Oc1ccc2ncnc(Nc3ccc(OCc4ccccc4)cc3)c2c1

1. 100
2. 98.2
3. 99.2

Given the entry CS(=O)(=O)CCNCc1ccc(-c2ccc3ncnc(Nc4ccc(OCc5ccccc5)c(Cl)c4)c3c2)o1.Cl , report its measured %Inh.
100
